- measured-target: human TLR8 (Homo sapiens (Human))
- method-notes: TLR8 inhibition reporter assay (HEK-Blue, SEAP)
- test-conditions: HEK-Blue cells overexpressing human TLR8, R848 15.9 μM stimulation
outcome-measure: IC50 (nM)

molecule | outcome-measure | measured
Cc1cc(-c2[nH]c3ccc(-c4nc5c(s4)CN(C(=O)CN(C)C)CC5)cc3c2C(C)C)cc(C)n1 | IC50 | 2.3
CC(C)c1c(-c2ccnc3[nH]ncc23)[nH]c2ccc(-c3nnc(CN4CCC[C@H]4C(N)=O)o3)cc12 | IC50 | 174
Cc1cc(-c2[nH]c3ccc(-c4nnc(C5CCN(C(C)C)CC5)[nH]4)cc3c2C(C)C)ccn1 | IC50 | 6.7
Cc1cc(-c2[nH]c3ccc(-c4ccc(N)nn4)cc3c2C(C)C)ccn1 | IC50 | 16
Cc1cc(-c2[nH]c3ccc(-c4ccc(N)nn4)cc3c2C(C)C)cc(C)n1 | IC50 | 5.6
CC(=O)Nc1ccc(-c2ccc3[nH]c(-c4ccnc(C)c4)c(C(C)C)c3c2)cn1 | IC50 | 15
CC(C)c1c(-c2ccnc3[nH]ncc23)[nH]c2ccc(-c3nnc(C(=O)NCCN(C)C)s3)cc12 | IC50 | 2.5
Cc1cc(-c2[nH]c3ccc(-c4nc(C(=O)N[C@H]5CC[C@H](N)CC5)co4)cc3c2C(C)C)cc(C)n1 | IC50 | 16
COc1ccc(-c2[nH]c3ccc(-c4ccc(N5CCCN(C)CC5)cc4)cc3c2C(C)C)cc1OC | IC50 | 35
CCc1c(-c2ccc(OC)c(OC)c2)[nH]c2ccc(-c3noc(CCN(C)C)n3)cc12 | IC50 | 19
COc1ccc(-c2[nH]c3ccc(-c4nnc(C(=O)NCCN(C)C)o4)cc3c2C(C)C)cc1OC | IC50 | 4
Cc1cc(-c2[nH]c3ccc(-c4nnc(C5CCNCC5)[nH]4)cc3c2C(C)C)ccn1 | IC50 | 83
Cc1cc(-c2[nH]c3ccc(-c4nnc([C@H]5Cc6ccccc6CN5)o4)cc3c2C(C)C)ccn1 | IC50 | 45
Cc1cc(-c2[nH]c3ccc(-c4ccc(Cl)nc4)cc3c2C(C)C)ccn1 | IC50 | 301
CNCC(=O)N1CCc2cc(-c3ccc4[nH]c(-c5cc(C)nc(C)c5)c(C(C)C)c4c3)sc2C1 | IC50 | 4.9
Cc1cc(-c2[nH]c3ccc(-c4nnc(C5CCCN(C(=O)CN(C)C)C5)[nH]4)cc3c2C(C)C)ccn1 (stereo not drawn) | IC50 | 6.3
Cc1cc(-c2[nH]c3ccc(-c4nnc(C5CCCN(C(C)C)C5)o4)cc3c2CC(F)F)cc(C)n1 (stereo not drawn) [Example 314] | IC50 | 11
COc1ccc(-c2[nH]c3ccc(-c4cccc(-c5cccc(CN6CCOCC6)c5)c4)cc3c2C(C)C)cc1OC | IC50 | 519
Cc1cc(-c2[nH]c3ccc(-c4cc(F)c5nc(C)cn5c4)cc3c2C(C)C)cc(C)n1 | IC50 | 84
Cc1cc(-c2[nH]c3ccc(-c4nnc(C(=O)N5CC6CNCC6C5)o4)cc3c2C(C)C)ccn1 (stereo not drawn) | IC50 | 6
Cc1cc(-c2[nH]c3ccc(-c4nnc(CCc5cccnc5)o4)cc3c2C(C)C)ccn1 | IC50 | 60
COCCNCc1nnc(-c2ccc3[nH]c(-c4ccc(OC)c(OC)c4)c(C(C)C)c3c2)o1 | IC50 | 301
Cc1cc(-c2[nH]c3ccc(-c4cc5c(s4)CN(C(=O)CN(C)C)CC5)cc3c2C(C)C)ccn1 | IC50 | 13
Cc1cc(-c2[nH]c3ccc(-c4cc5c(s4)CNCC5)cc3c2C(C)C)ccn1 | IC50 | 1
CC(C)c1c(-c2ccnc3[nH]ncc23)[nH]c2ccc(-c3nnc(CC4CCCNC4)o3)cc12 (stereo not drawn) | IC50 | 44
CCc1c(-c2ccc(OC)c(OC)c2)[nH]c2ccc(-c3noc([C@@H](N)Cc4c[nH]cn4)n3)cc12 | IC50 | 123
COc1ccc(-c2[nH]c3ccc(-c4cccc(C(=O)N5CCN(c6ccncc6)CC5)c4)cc3c2CC(F)(F)F)cc1OC | IC50 | 102
CC(C)CN1CCC(NC(=O)c2nnc(-c3ccc4[nH]c(-c5ccnc6[nH]ncc56)c(C(C)C)c4c3)o2)CC1 | IC50 | 4.4
Cc1cc(-c2[nH]c3ccc(-c4nnc(CC(F)(F)F)o4)cc3c2C(C)C)ccn1 | IC50 | 72
Cc1cc(-c2[nH]c3ccc(-c4nc(C(=O)NC5CCCNC5)co4)cc3c2C(C)C)cc(C)n1 (stereo not drawn) | IC50 | 17

----------
Here the recorded IC50 is given for each entry.
- measured-target: human TLR7 (Homo sapiens (Human), UniProt Q9NYK1)
- Sequence (Q9NYK1 27-1049): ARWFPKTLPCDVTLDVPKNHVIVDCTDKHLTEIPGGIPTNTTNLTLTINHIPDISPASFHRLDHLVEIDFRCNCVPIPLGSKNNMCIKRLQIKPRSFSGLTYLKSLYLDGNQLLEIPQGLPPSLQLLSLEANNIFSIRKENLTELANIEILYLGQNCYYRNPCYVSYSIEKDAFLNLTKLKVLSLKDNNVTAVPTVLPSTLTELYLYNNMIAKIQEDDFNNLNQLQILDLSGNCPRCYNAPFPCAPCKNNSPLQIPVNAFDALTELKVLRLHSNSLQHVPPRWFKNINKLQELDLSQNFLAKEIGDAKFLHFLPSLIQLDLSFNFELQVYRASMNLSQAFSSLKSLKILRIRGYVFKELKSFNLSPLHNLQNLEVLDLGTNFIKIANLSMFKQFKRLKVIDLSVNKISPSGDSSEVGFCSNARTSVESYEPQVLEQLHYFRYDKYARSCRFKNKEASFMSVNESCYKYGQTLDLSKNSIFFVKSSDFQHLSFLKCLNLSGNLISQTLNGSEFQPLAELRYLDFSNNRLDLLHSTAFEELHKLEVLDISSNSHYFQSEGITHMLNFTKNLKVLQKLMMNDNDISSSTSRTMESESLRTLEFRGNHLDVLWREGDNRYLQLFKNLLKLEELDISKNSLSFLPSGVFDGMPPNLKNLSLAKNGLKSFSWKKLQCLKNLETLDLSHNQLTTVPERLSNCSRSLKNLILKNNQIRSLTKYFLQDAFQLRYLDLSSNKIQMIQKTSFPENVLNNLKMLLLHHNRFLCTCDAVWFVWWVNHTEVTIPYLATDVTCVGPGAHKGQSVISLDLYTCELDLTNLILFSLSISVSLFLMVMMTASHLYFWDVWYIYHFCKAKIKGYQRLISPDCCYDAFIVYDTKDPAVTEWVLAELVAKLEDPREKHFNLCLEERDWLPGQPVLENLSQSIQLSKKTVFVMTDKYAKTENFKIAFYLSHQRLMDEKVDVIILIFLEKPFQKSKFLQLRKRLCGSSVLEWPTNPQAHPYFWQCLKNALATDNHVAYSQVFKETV
- method-notes: TLR7 inhibition reporter assay (HEK-Blue, SEAP)
- test-conditions: HEK-Blue cells overexpressing human TLR7, gardiquimod 7.5 μM stimulation
outcome-measure: IC50 (µM)

smiles-representation | units | measured
Cc1cc(-c2[nH]c3ccc(-c4ccnc(N5CCN(C(C)C)CC5)c4)cc3c2C(C)C)ccn1 | µM | 0.119
COc1ccc(-c2[nH]c3ccc(-c4ccc(N5CCN(C(C)C)CC5)nc4)cc3c2C(C)C)cc1OC | µM | 0.06
COc1ccc(-c2[nH]c3ccc(-c4ccc(C5=CC(C)(C)NC(C)(C)C5)cc4)cc3c2C(C)C)cc1OC | µM | 0.9
COc1ccc(-c2[nH]c3ccc(-c4nnc(CNCCOCCO)o4)cc3c2C(C)C)cc1OC | µM | 0.038
Cc1cc(-c2[nH]c3ccc(-c4nnc(C(=O)NC5CCN(C(C)C)CC5)o4)cc3c2C(C)C)cc(C)n1 | µM | 0.015
Cc1cc(-c2[nH]c3ccc(-c4ccc(N5CCN(C)CC5)nc4)cc3c2C(C)C)cc(C)n1 | µM | 0.0052
Cc1cc(-c2[nH]c3ccc(-c4nccs4)cc3c2C(C)C)ccn1 | µM | 0.159
COc1ccc(-c2[nH]c3ccc(-c4nnc(C(=O)N5CCC(O)CC5)o4)cc3c2C(C)C)cc1OC | µM | 0.348

----------
- measured-target: UniProt Q9NR96
- Sequence (Q9NR96 26-1032): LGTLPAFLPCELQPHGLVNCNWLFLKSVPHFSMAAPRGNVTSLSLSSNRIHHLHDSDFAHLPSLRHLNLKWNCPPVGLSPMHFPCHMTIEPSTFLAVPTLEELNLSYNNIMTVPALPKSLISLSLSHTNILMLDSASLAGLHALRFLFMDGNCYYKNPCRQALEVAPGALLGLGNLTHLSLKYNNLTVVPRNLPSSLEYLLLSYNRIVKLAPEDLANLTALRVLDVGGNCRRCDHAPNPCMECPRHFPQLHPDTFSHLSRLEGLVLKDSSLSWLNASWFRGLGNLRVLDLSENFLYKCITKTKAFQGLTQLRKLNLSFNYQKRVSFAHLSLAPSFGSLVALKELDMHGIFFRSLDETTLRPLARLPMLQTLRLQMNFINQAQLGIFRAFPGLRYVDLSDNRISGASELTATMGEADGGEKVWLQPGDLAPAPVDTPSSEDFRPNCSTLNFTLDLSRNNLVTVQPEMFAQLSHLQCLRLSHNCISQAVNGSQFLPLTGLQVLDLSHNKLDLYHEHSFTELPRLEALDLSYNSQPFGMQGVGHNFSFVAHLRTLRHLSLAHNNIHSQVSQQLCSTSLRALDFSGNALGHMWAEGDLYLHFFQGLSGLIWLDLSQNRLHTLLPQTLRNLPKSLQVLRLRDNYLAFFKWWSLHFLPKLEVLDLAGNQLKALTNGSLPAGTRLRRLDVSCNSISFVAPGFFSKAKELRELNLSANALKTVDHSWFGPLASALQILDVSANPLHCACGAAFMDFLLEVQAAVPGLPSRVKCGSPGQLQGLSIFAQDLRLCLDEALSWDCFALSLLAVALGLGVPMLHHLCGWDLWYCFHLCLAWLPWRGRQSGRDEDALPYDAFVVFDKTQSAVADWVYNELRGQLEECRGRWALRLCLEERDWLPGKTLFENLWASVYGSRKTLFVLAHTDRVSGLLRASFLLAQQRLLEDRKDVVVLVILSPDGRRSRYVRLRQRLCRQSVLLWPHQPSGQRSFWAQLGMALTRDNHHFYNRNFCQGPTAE
- method-notes: TLR9 inhibition reporter assay (HEK-Blue, SEAP)
- test-conditions: HEK-Blue cells overexpressing human TLR9, ODN2006 5 nM stimulation
pIC50: −log10 of the molar value.
outcome-measure: pIC50

molecule | outcome-measure | bound-sign | measured
CNC(=O)c1c(-c2ccc3[nH]c(-c4ccnc(C)c4)c(C(C)C)c3c2)nn2c1CNCC2 [Example 215] | pIC50 | = | 4.68
CNCCc1nnc(-c2ccc3[nH]c(-c4ccnc(C)c4)c(C(C)C)c3c2)o1 [Example 142] | pIC50 | = | 6.21
Cc1cc(-c2[nH]c3ccc(-c4nnc(C5CCCN(C(C)C)C5)[nH]4)cc3c2C(C)C)cc(C)n1 (centres unmarked) [Example 357] | pIC50 | = | 6.69
CC(C)c1c(-c2ccnc3[nH]ncc23)[nH]c2ccc(-c3cccnc3)cc12 [Example 467] | pIC50 | = | 4.62
Cc1cc(-c2[nH]c3ccc(-c4nnc(C(C)CN)o4)cc3c2C(C)C)ccn1 (centres unmarked) [Example 263] | pIC50 | = | 6.06
CC(C)c1c(-c2ccnc3[nH]ncc23)[nH]c2ccc(-c3nnc(C(=O)NCCN(C)C)s3)cc12 [Example 195] | pIC50 | = | 6.18
CNCCCNC(=O)c1coc(-c2ccc3[nH]c(-c4cc(C)nc(C)c4)c(C(C)C)c3c2)n1 [Example 279] | pIC50 | = | 6.89
COc1ccc(-c2[nH]c3ccc(-c4cccc(-c5ccc6nonc6c5)c4)cc3c2C(C)C)cc1OC [Example 409] | pIC50 | < | 4.30

----------
- measured-target: human TLR8 (Homo sapiens (Human), UniProt Q9NR97)
- Sequence (Q9NR97 27-1041): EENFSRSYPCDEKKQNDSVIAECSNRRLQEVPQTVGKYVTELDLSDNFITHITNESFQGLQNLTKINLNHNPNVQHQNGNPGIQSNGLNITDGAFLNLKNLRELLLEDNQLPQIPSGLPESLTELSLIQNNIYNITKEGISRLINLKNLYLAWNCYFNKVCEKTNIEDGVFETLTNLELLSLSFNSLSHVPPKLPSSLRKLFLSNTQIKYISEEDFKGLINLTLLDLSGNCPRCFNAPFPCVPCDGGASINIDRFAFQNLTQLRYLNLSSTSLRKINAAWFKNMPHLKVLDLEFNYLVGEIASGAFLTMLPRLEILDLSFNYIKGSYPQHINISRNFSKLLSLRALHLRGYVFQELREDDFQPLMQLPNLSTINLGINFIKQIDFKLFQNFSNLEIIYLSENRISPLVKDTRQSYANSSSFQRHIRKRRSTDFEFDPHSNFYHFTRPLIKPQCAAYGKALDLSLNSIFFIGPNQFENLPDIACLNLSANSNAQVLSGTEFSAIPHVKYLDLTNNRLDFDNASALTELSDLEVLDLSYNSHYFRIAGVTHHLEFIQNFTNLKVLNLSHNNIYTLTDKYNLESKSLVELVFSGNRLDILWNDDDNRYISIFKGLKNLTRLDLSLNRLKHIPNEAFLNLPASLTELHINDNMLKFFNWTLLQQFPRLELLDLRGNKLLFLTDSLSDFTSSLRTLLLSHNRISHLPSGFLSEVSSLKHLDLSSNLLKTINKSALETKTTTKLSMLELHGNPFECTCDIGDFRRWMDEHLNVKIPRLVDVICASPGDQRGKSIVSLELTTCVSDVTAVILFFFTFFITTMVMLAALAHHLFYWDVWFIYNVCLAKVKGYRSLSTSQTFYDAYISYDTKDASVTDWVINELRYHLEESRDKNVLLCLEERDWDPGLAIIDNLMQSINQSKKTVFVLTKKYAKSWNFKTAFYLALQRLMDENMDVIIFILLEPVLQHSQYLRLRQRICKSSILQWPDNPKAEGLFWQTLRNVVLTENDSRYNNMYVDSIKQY
- method-notes: TLR8 inhibition reporter assay (HEK-Blue, SEAP)
- test-conditions: HEK-Blue cells overexpressing human TLR8, R848 15.9 μM stimulation
pIC50: −log10 of the molar value.
The threshold is inclusive: pIC50 of exactly 8 counts as TRUE; values below receive FALSE.

compound | assigned-category
CC(C)c1c(-c2ccnc3[nH]ncc23)[nH]c2ccc(-c3nnc(CN4CCNC(=O)C4)o3)cc12 | FALSE
CNCCc1nnc(-c2ccc3[nH]c(-c4ccnc(C)c4)c(C(C)C)c3c2)o1 | TRUE
Cc1cc(-c2[nH]c3ccc(-c4nnc(CCN(C)C)o4)cc3c2C(C)C)ccn1 | TRUE
Cc1cc(-c2[nH]c3ccc(-c4nnc(C5CCN(CC(=O)N(C)C)CC5)[nH]4)cc3c2C(C)C)ccn1 | TRUE
Cc1cc(-c2[nH]c3ccc(-c4nnc(C5CCCNC5)[nH]4)cc3c2C(C)C)ccn1 (stereo not drawn) [Example 164] | FALSE
COc1ccc(-c2[nH]c3ccc(-c4cccc(C(=O)N(C)CCc5ccccn5)c4)cc3c2CC(F)(F)F)cc1OC | FALSE
COc1ccc(-c2[nH]c3ccc(-c4cccc(C(=O)NCCNC(C)=O)c4)cc3c2CC(F)(F)F)cc1OC | FALSE
Cc1cc(-c2[nH]c3ccc(-c4nnc([C@H]5CCCNC5)o4)cc3c2C(C)C)ccn1 | TRUE
CNCCN1CCC(c2nnc(-c3ccc4[nH]c(-c5ccc(OC)c(OC)c5)c(CC(F)(F)F)c4c3)o2)CC1 | FALSE
COc1ccc(-c2[nH]c3ccc(-c4ccc(NC5CCN(C(C)C)CC5)cc4)cc3c2C(C)C)cc1OC | FALSE
Cc1cc(-c2[nH]c3ccc(-c4cccc(C(=O)NC5CCN(C(C)C)CC5)c4)cc3c2C(C)C)ccn1 | FALSE
COc1ccc(-c2[nH]c3ccc(-c4ccc(OC5CCNCC5)cc4)cc3c2C(C)C)cc1OC | FALSE
Cc1cc(-c2[nH]c3ccc(-c4nnc(C5CCCN(C)C5)o4)cc3c2C(C)C)ccn1 (stereo not drawn) [Example 169] | TRUE
COc1ccc(-c2[nH]c3ccc(-c4nnc(CCn5ccnc5)o4)cc3c2C(C)C)cc1OC | FALSE
COc1ccc(-c2[nH]c3ccc(-c4ccc(N5CCN(C(C)=O)CC5)nc4)cc3c2C(C)C)cc1OC | FALSE
COc1ccc(-c2[nH]c3ccc(-c4cccc(N5CCN(C)CC5)c4)cc3c2C(C)C)cc1OC | FALSE
Cc1cc(-c2[nH]c3ccc(-c4nnc(C(C)CN)o4)cc3c2C(C)C)ccn1 (stereo not drawn) | TRUE
Cc1cc(-c2[nH]c3ccc(-c4nc5c(s4)CCN(CC(=O)N(C)C)C5)cc3c2C(C)C)cc(C)n1 | TRUE
CC(C)c1c(-c2ccnc3[nH]ncc23)[nH]c2ccc(-c3ccc4nccnc4c3)cc12 | FALSE
